Biological target: T1, Human EphA2 (Ecto) (Human, UniProt P29317 24-537)
T1 construct: extracellular domain; in-house)
T1 sequence (P29317 24-537): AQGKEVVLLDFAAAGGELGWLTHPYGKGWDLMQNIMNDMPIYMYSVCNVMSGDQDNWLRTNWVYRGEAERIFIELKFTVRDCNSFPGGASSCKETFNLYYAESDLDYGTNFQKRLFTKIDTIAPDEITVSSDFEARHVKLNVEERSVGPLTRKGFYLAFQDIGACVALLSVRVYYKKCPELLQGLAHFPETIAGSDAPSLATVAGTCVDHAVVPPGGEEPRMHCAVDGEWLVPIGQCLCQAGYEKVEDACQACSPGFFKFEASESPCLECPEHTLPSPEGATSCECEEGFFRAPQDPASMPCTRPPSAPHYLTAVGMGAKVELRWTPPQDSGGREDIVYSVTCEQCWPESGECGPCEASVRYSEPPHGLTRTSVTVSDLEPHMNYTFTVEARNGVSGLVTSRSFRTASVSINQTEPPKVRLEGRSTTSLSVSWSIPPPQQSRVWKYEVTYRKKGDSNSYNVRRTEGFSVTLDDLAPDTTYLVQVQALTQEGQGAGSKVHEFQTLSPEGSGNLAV
Experiment: FP competition; tracer Reference Compound C
Starred links: 1 amine or outer side, 2 acyl side, 3 side chain; linkers in the order of their positions; H or OH if unused. Positions of bridges follow the written chain, without caps; N, C: chain ends. Non-standard residues stand in square brackets, D forms with d. No end group written: not given here. TATA = O=C(CC[*:1])N1CN(C(=O)CC[*:2])CN(C(=O)CC[*:3])C1; 2Nal = N[C@@H](Cc1ccc2ccccc2c1)C(=O)O
What Ki was measured for each of the following?
Give a bare numeral; the unit nM is implied.

Record request: Ki value, item ACRGEWGYCAYPDTICA (linker 2-9-16 via TATA) [Bicycle Compound Number 34 (TATA scaffold), ACRGEWGYCAYPDTICA]
348

And the next one, ACRNWGMYCAYPDTICA (linker 2-9-16 via TATA) [Bicycle Compound Number 35 (TATA scaffold), ACRNWGMYCAYPDTICA] ?
282

And the next one, ACGFMGLEPCEMVCA (linker 2-10-14 via TATA) [Bicycle Compound Number 42 (TATA scaffold), ACGFMGLEPCEMVCA] ?
320

And the next one, RPPCPLVNPLCLHPGWTCA (linker 4-11-18 via TATA) [Bicycle Compound Number 71 (TATA scaffold), RPPCPLVNPLCLHPGWTCA] ?
11.1

And the next one, ACPLVNPLCLHPG[2Nal]TCLHG (linker 2-9-16 via TATA) [Bicycle Compound Number 79 (TATA scaffold), ACPLVNPLCLHPG(2Nal)TCLHG] ?
162

And the next one, ACPLVNPLCMMGGWKCA (linker 2-9-16 via TATA (inferred)) [Bicycle Compound Number 62 (TATA scaffold), ACPLVNPLCMMGGWKCA] ?
67.1
